procedure text: yeast display, Sf9 membrane polyspecificity reagent, FACS + sequencing; frameworks hold sequencing errors
measurement label: polyreactivity (PSR sort gate)

- biopolymer sequence: "HVQLVESGGGLVQAGGSLRLSCAASGRILRRNAMGWYRQAPGKEREFVAAITWRGGSTYYADSVKGRFTISRDNAKNTVYLQMNSLKPEDTAVYYCAADTYSVEYVLPYYYWGQGTQVTVSS"
  measurement label: "polyreactivity (PSR sort gate)"
  recorded value: "high polyreactivity"
- biopolymer sequence: "QVQLVESGGGLVQAGGSLRLSCAASGRTFTYYAMGWSRQAPGKERELVASITSGGSTYADSVKGRFTISRDNAKNTVYLQMNSLKPEDTAVYYCAARAWGYRYKYYWGQGTQVTVSS"
  measurement label: "polyreactivity (PSR sort gate)"
  recorded value: "high polyreactivity"
- biopolymer sequence: "QVQLVESGGGLVKAGGSLRLSCAASGRIFNYYAMGWYRQAPGKERELVAAISSVGSTNYADSVTGRFTISRDNAKNTVYLQMISLKPEDTAVYYCAAPYQHYDVNYDSWGQGTQVTVSS"
  measurement label: "polyreactivity (PSR sort gate)"
  recorded value: "low polyreactivity"
- biopolymer sequence: "QVQLVESGGGLVQAGGSLRLSCAASGSTFVPYAMGWYRQAPGKERELVASISWRGGSTSYADSVKGRFTISRDNAKNTVYLQMNSLKPEDTAVYYCAKRRYWAPYDYWGQGTQVTVSS"
  measurement label: "polyreactivity (PSR sort gate)"
  recorded value: "high polyreactivity"
- biopolymer sequence: "QVQLVESGGGLVQAGGSLRLSCAASGRTLRSYTMGWYRQAPGKERELVAAINWNGGTTYYADSVKGRFTISRDNAKNTVYLQMNSLKAEDTAVYYCAAESSRWHTYWYSLSNLGRGYWGQGTQVTVSS"
  measurement label: "polyreactivity (PSR sort gate)"
  recorded value: "high polyreactivity"
- biopolymer sequence: "QVQLVESGGGLVQAGGSLRLSCAASGRIFGAYAMGWYRQAPGKERELVAAITFRGGSTYYADSVKGRFTISRDNAKNTVYLQMNSLKPEDTAVYYCAADILDYLHIYDYWGQGTQVTVSS"
  measurement label: "polyreactivity (PSR sort gate)"
  recorded value: "low polyreactivity"
- biopolymer sequence: "QVQLVESGGGLVQAGGSLRLSCAASGRTFYTYAMGWYRQAPGKERELVAAITRRGGSTFYADSVKGRFTISRDNAKNTVYLQMNSLKPEDTAVYYCAARSTVGPQYGVRFNYWGQGTQVTVSS"
  measurement label: "polyreactivity (PSR sort gate)"
  recorded value: "high polyreactivity"
- biopolymer sequence: "QVQLVESGGGLVQAGGSLRLSCAASGSIFSYYAMGWYRQAPGKERELVARITRGGDGTYYADSVKGRFTISRDNAKNTDYLQMNSLKPEDTAVYYCARRQVLYTRDFEYDYWGQGTQVTVSS"
  measurement label: "polyreactivity (PSR sort gate)"
  recorded value: "low polyreactivity"
- biopolymer sequence: "QVQLVESVGGLVQAGGSLRLICAASGLTFEWYTMGWYRQATGNERELVAVITVSGSSTYYADSVKGRFTISRDNAKNTVYLQMNSLKPEDTAVYYCARKTYYTGDFLGREYGYWGQGTQVTVSS"
  measurement label: "polyreactivity (PSR sort gate)"
  recorded value: "low polyreactivity"
- biopolymer sequence: "QVHLVESGAGLVKAGGSLRLSCAASGRTFRYNAMGWYRQQPGNERELVATITTRGGSTYYADSVKGRFTISRDNAKNTVYLQMNSLKPEDTAVYYCATKWPVYPTGYDYWGQGTQVTVSS"
  measurement label: "polyreactivity (PSR sort gate)"
  recorded value: "low polyreactivity"
- biopolymer sequence: "QVQLQESGGGLVQAGGGLRLSCAASGTISGPHVMGWYRQAPGKEREFVAAINVGANTYYADNVKGRFTISRDNAKNTVYLQMNSLKPEDTAVYYRAAVYYGDIGHEYWGQGTQVTVSC"
  measurement label: "polyreactivity (PSR sort gate)"
  recorded value: "low polyreactivity"
- biopolymer sequence: "QVQLVESGGGLVQAGGSLRLSCAASGIIIRRYAMGWSRQAPGKERELVAAISWSGGSTYYADSVKGRFTISRDNAKNTVDLQMNSLKPEDTAVYYCAAAAYTRDEYDYWGQGTQVTVSS"
  measurement label: "polyreactivity (PSR sort gate)"
  recorded value: "high polyreactivity"
- biopolymer sequence: "QVQLEESGGGLVQAGGSLRLSCAASGSIFTNAMGWYRQAPGKERELVAAISSSGGSTYYADSVKGRFTISRDNAKNTVYLQMNSLKPEDTAVYYCAADHYGGRDYWGQGTQVTVSS"
  measurement label: "polyreactivity (PSR sort gate)"
  recorded value: "low polyreactivity"
- biopolymer sequence: "QVQLVESGGGLVQAGGSLRLSCAASGRTFWGITMGWYRQAPGKERELVASITYSGGRTYYADSVKGRFTISRDNAKNTVYLQMNSLKPEDTAVYYCAATLYRYRYFGYDYWGQGTQVTVSS"
  measurement label: "polyreactivity (PSR sort gate)"
  recorded value: "high polyreactivity"
- biopolymer sequence: "QVQLVESGGGLVQAGGSLRLSCAASGSTFNAYAMGWYRQAPGKERELVAVISSSGGRTYYADSVKGSFTISRDNAKNTVYLQMNSLKPEDTAVYYCNADVKYRYNHWGQGTQVTLSS"
  measurement label: "polyreactivity (PSR sort gate)"
  recorded value: "high polyreactivity"
- biopolymer sequence: "QVQLVESGGGLVQAGGSLRLSCAASGSTFVRNAMGWYRQAPGKERELVARISSSGGRTSYADSVKGRFTISRDNAKNTVYLQMNSLKPEDTAVYYCNARHYYIWWRSPTRTAMNYWGQGTQVTVSS"
  measurement label: "polyreactivity (PSR sort gate)"
  recorded value: "high polyreactivity"
- biopolymer sequence: "QVQLVESGGGLVHAGGSLRLSCAASGRIFERYAMGWYRQAPGKERELVAAISVSGSGTYYADSVKGRFTISRDNAKNTVYLQMNSLKPEDTAVYYCAADASLLGLFQGYDYWGQGTQVTVSS"
  measurement label: "polyreactivity (PSR sort gate)"
  recorded value: "low polyreactivity"
- biopolymer sequence: "QDQLVESGGGLVQAGGSLRLSCAASGTIFFGYSMGSYRQAPGKERDLVASISSADTTYYADSVKGRFTISRDNAKNTVYLQMNSLKPEDTAVYYCAAREGQLWEDGDYWGQGTQVTVSS"
  measurement label: "polyreactivity (PSR sort gate)"
  recorded value: "low polyreactivity"
- biopolymer sequence: "QVQLVESGGGLVQAGGSLRLICAASGITFNKYSMGWYRQAPGKERELVAAISSRGCSTYYADSVKGRFTISRDNAKNTVYLQMNSLKPEYTAVYYCAAERGTTYAYDYWGQGTQVTVSS"
  measurement label: "polyreactivity (PSR sort gate)"
  recorded value: "high polyreactivity"
- biopolymer sequence: "QVQHVESGGGLVQPGGSLRLSCAASGYTFYANAMGWYRQAPGKEREFVASITWSGGSSYYADSVKGRFTISRDNAKNTVYLHLNSLKPEDTAVYYCAAESWFKYDYWGQGTQVTLSS"
  measurement label: "polyreactivity (PSR sort gate)"
  recorded value: "low polyreactivity"
- biopolymer sequence: "QVQLVESGGGLVQAGGSLRLSCAASGFIFGINAMGWYRQAPGKDRELVATITSGGGTNYADSVKGRFTISRDNAKNTVYLQMNSLKPEETAVYYCAAEEDYISFYVSMDYWGQGTQVTVSS"
  measurement label: "polyreactivity (PSR sort gate)"
  recorded value: "low polyreactivity"
